- systemName: T1, human GIP receptor (human, UniProt P48546 22-466)
- T1 sequence (looked up): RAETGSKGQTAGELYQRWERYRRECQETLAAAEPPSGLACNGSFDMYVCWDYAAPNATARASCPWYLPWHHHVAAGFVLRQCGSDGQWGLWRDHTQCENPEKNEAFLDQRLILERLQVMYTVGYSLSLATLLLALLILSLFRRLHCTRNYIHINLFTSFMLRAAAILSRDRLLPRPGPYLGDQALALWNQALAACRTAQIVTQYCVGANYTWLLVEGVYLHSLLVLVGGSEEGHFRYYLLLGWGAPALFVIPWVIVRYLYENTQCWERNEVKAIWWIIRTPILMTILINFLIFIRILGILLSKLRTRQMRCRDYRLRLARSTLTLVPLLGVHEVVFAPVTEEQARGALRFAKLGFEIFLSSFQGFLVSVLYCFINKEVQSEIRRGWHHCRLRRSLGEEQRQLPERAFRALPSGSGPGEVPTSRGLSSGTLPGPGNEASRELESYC
- testName: cell-based or functional assay
Positions of bridges follow the written chain, without caps; N, C: chain ends. Non-standard residues stand in square brackets, D forms with d. No end group written: not given here. Aib = CC(C)(N)C(=O)O
assayEndpoint: In vitro Activity Compared to Native Peptide (%) vs. GIP
Answer format: numeric, % implied, no suffix.

H[Aib]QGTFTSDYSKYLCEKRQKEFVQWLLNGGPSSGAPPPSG (bridge 16-20) [triple agonist of SEQ ID NO: 36]	0.2

Could you now look at the following binder, please?
Challenge: Recorded In vitro Activity Compared to Native Peptide (%) vs. GIP for Y[Aib]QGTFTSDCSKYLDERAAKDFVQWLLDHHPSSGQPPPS (bridge 16-20) [triple agonist of SEQ ID NO: 72] , please?
Response given: 1.6
